# z-score per entry
Assay: Components of the Cytosolic LPS Sensing Pathway: Gene Identification via Genome-wide siRNA Screen;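 further: robust z of the log signal after scaling to non-targeting control siRNA wells of the plate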
Conditions: RAW264.7 macrophages, IL-1a HTRF, actives lie on both sides, screened at 100 nM (by protocol), cells primed 5 h with Pam3CSK4 first
Method: Non-canonical inflammasome activation by cytosolic LPS is a critical component of the host response to Gram-negative bacterial infection, however we lack a comprehensive understanding of the cellular processes that control this pathway. […] Lipofectamine RNAiMAX Transfection Reagent ([…]; Invitrogen) was added in […] serum-free, antibiotic-free media to plate wells using a Thermo Scientific Matrix WellMate and Microplate Stacker. […] The plates were read on an EnVision plate reader (PerkinElmer). […]
Out of some 53,000 sequences screened, about 3,700 (7%) were called active. The entries come from a sample that favours actives as a whole.
Give a plain numeric answer without units written out.

Example sequences with recorded z-score:
{"input.sequence": "GGAAGAUCAGCCAUACUAGTT against Klrb1f", "measure.name": "z-score", "numeric.readout": 2.12}
{"input.sequence": "GCAGCAUAGAGACUAAAUCTT against Usp17la", "measure.name": "z-score", "numeric.readout": 0.604}
{"input.sequence": "GGGUGAUUUCUAUUCACUATT against Pam", "measure.name": "z-score", "numeric.readout": -0.633}
{"input.sequence": "GGAUCAACAGUCAAUUGUGTT against Tax1bp1", "measure.name": "z-score", "numeric.readout": -2.16}
{"input.sequence": "GGAUGUGUCAGAAAAGUUATT against Lars2", "measure.name": "z-score", "numeric.readout": 0.641}
{"input.sequence": "GGGUGAUAAGCAGUUAUACTT against Wdr75", "measure.name": "z-score", "numeric.readout": 1.33}
{"input.sequence": "GGUAGCUAUUAAAGAAUCCTT against AW209491", "measure.name": "z-score", "numeric.readout": 1.12}
{"input.sequence": "GCCACCAUUAAAAGACUGATT against Gdnf", "measure.name": "z-score", "numeric.readout": 0.737}
{"input.sequence": "AAACCAUACUUGAAAGAAATT against Olfr943", "measure.name": "z-score", "numeric.readout": -0.36}
{"input.sequence": "GGGAACUGCACAAUACAAATT against Ccdc122", "measure.name": "z-score", "numeric.readout": 1.91}

Note to self: z-score recorded for GGAACUUUUUCAGAGCUCUTT against Senp3 was -1.6

Memo: GGGUCAUUGGUAGCAACGATT against Oas1g , reported z-score: -2.9

* * *

Collected z-score values appear next to each entry.
Experiment: Components of the Cytosolic LPS Sensing Pathway: Gene Identification via Genome-wide siRNA Screen;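 further: robust z of the log signal after scaling to non-targeting control siRNA wells of the plate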
Settings: RAW264.7 macrophages, IL-1a HTRF, actives lie on both sides, screened at 100 nM (by protocol), cells primed 5 h with Pam3CSK4 first
About 3,700 (7%) of roughly 53,000 sequences were called active. Only a selection was taken, and actives are over-represented in it overall.
API doc: respond with a numeric literal and nothing else, no unit.

{"input.sequence": "GGUCUGUACUUGUUUAGAATT against Vwa3b", "z-score": 0.42}
{"input.sequence": "GCAAGCACGUCAGAAUCUCTT against Pln", "z-score": 2.32}
{"input.sequence": "CCUUUGUAGGAACAAUUUATT against Phlda1", "z-score": 0.409}
{"input.sequence": "GGAGUGAAAUUUACUGGGUTT against Hdgfl3", "z-score": 1.28}
{"input.sequence": "GGGACAGUUUUCGGACUUCTT against S1pr4", "z-score": -0.362}

The sequence listed as UCAUUGAGAAAGGAGAAGATT against Cox17 has a reported z-score of -0.547

Entry GGACUUACAUGGAAUUUUATT against Eftud2 — recorded z-score = -2.07

Please fill in: z-score reported for CCUGGCUAUUGGUGAGUGATT against Slc30a3 = 1.9

The value of z-score measured for the sequence GGACCUGUAUUCUCAGGGATT against Lce1a2 turned out to be -0.251

z-score recorded for this sequence, GGACAAGAUAGGAGGAGACTT against Abhd16a , is -0.776

Measured values drawn from PubChem BioAssay AID1508600 for this set.
